tested on: HEK-293T; experiment: Incucyte cell viability with HEK293T; format: toxicity, cell-based; conditions: human, 12 h, 10 µM, compound concentration 10 uM, replicate number 1, timepoint 12 hours; note: unitless GR value; below 1 slowed growth and below 0 cell loss
Attribute: Growth Rate
Respond numerically, and do not add a unit to the figure.

Sample records with Growth Rate:
CCCCC[C@H](O)/C=C/[C@H]1CCC(=O)[C@@H]1CCCCCCC(=O)O; 0.56
Cc1ccccc1C(=O)Nc1ccc(C(=O)N2CCCC(N(C)C)c3ccccc32)cc1.Cl (stereo not drawn); -0.32
O=C(c1cc(C2CC2)on1)N(C1CCCCC1)C1CCCCC1; 0.55
Cc1cc(C)cc([C@H]2c3cc(C)ccc3NC(=O)CN2C(=O)c2ccc(Br)s2)c1; 0.79
Cn1cc(-c2ccc3occ(-c4cccc(-c5ccncc5)c4)c3n2)cn1; -0.67

[in] Find the measured Growth Rate of "Cc1c(C(=O)Nc2ccc(N3C[C@@H](C)O[C@@H](C)C3)nc2)cccc1-c1ccc(OC(F)(F)F)cc1" and report it.
[out] -0.06

[in] Find the measured Growth Rate of "CCOC(=O)N[C@@H]1CC[C@@H]2[C@@H](C1)C[C@H]1C(=O)O[C@H](C)[C@H]1[C@H]2/C=C/c1ccc(-c2cccc(F)c2)cn1" and report it.
[out] 0.42

[in] Find the measured Growth Rate of CS(=O)(=O)N1CCCC(NC(=O)[C@H](CCC2CCCCC2)NC(=O)c2ccc(CNc3ncnc4c3nnn4-c3ccccc3)cc2)C1 (stereo partly drawn) and report it.
[out] -0.33

* * *

test system: U2OS; test: Incucyte cell viability with U2OS; format: toxicity, cell-based; settings: human, 24 h, 10 µM, compound concentration 10 uM, replicate number 1, timepoint 24 hours; note: unitless GR value; below 1 slowed growth and below 0 cell loss
So basically: is Growth Rate under 0.8? Then Met. Not under? Then Not met.

[in] Take the molecule "CCOC(=O)Nc1cc(-c2ccc(C)c(NS(C)(=O)=O)c2)nn2c(C)nnc12" and say whether its Growth Rate is less than 0.8.
[out] Not met

[in] Take the molecule "CCNC(=O)[C@H]1O[C@@H](n2cnc3c(N)ncnc32)[C@H](O)[C@@H]1O.O" and say whether its Growth Rate is less than 0.8.
[out] Met

[in] Take the molecule "Cl.O=C(O)c1cc(-c2ccc(C3CCNCC3)cc2)c2ccc(-c3ccc(C(F)(F)F)cc3)cc2c1" and say whether its Growth Rate is less than 0.8.
[out] Met

[in] Take the molecule "COc1ccc2cc(S(=O)(=O)N[C@H](CC(=O)N[C@H](Cc3ccc(CN4[C@H](C)CCC[C@@H]4C)cc3)C(=O)N(C)C(C)C)c3ccc4c(c3)OCO4)ccc2c1.Cl" and say whether its Growth Rate is less than 0.8.
[out] Met

[in] Take the molecule "CC(C)Oc1ccc(-c2c[nH]cc2CN(C)CCO)cc1" and say whether its Growth Rate is less than 0.8.
[out] Not met

[in] Take the molecule Cl.NCCc1ccc(O)c(O)c1 [DOPAMINE HYDROCHLORIDE] and say whether its Growth Rate is less than 0.8.
[out] Not met

[in] Take the molecule "CCCN(CCC)[C@@H]1CCc2ccc3[nH]c(C#N)cc3c2C1.Cl" and say whether its Growth Rate is less than 0.8.
[out] Not met

[in] Take the molecule "COc1cc(/C=C/C(=O)NCCn2c(C)cc3ccccc32)cc(OC)c1OC" and say whether its Growth Rate is less than 0.8.
[out] Met

* * *

test system: HEK-293T; test: Incucyte cell viability with HEK293T; format: toxicity, cell-based; conditions: human, 12 h, 10 µM, compound concentration 10 uM, replicate number 2, timepoint 12 hours; note: unitless GR value; below 1 slowed growth and below 0 cell loss
// label 0 strictly below 0.9 in Growth Rate; label 1 otherwise

# example entries with known answers
COc1ccccc1N1CCN(CCCCNC(=O)c2ccc3ccccc3c2)CC1.Cl; label 0
CC(=O)c1ccc2c(c1)[C@@H]1C=CC[C@@H]1[C@H](c1cc3c(cc1Br)OCO3)N2; label 0
CCCCC(=O)N(Cc1ccc(-c2ccccc2-c2nnn[nH]2)cc1)[C@H](C(=O)O)C(C)C; label 1
O=C(O)c1ccccc1S(=O)(=O)NCCCCN1C(=O)c2cccc3cccc(c23)C1=O; label 1
COC(=O)Nc1nc2ccc(C(=O)c3cccs3)cc2[nH]1 [NOCODAZOLE]; label 0

[in] Does the reported Growth Rate for "CN1CCN(c2nc3cc(C(F)(F)F)ccc3n3cccc23)CC1.O=C(O)/C=C\C(=O)O.O=C(O)/C=C\C(=O)O" fall at or above the 0.9 mark?
[out] label 0

[in] Does the reported Growth Rate for "CCN1/C(=C/C(C)=O)Sc2ccc(OC(C)=O)cc21" fall at or above the 0.9 mark?
[out] label 0

[in] Does the reported Growth Rate for "CC(C)Oc1ccc(F)c(-c2cnc(N)c(C(=O)Nc3cnccc3N3CCC[C@@H](C(=O)O)C3)n2)c1" fall at or above the 0.9 mark?
[out] label 0

[in] Does the reported Growth Rate for CCOC(=O)N[C@@H]1CC[C@@H]2[C@@H](C1)C[C@H]1C(=O)O[C@H](C)[C@H]1[C@H]2/C=C/c1ccc(-c2cccc(F)c2)cn1 [VORAPAXAR] fall at or above the 0.9 mark?
[out] label 0

* * *

tested on: HEK-293T; assay: Incucyte cell viability with HEK293T; format: toxicity, cell-based; conditions: human, 18 h, 10 µM, compound concentration 10 uM, replicate number 2, timepoint 18 hours; note: unitless GR value; below 1 slowed growth and below 0 cell loss
Where a SMILES comes first, the peptide text is derived from it. Bridges are numbered along the chain shown (N, C = ends). [ ]: non-standard residue; d: D form. Orn = NCCC[C@H](N)C(=O)O; Mpa = O=C(O)CCS
Attribute measured: Growth Rate
Respond numerically, and do not add a unit to the figure.

CCCCC[C@H](O)/C=C/[C@H]1CCC(=O)[C@@H]1CCCCCCC(=O)O; 0.73
C[C@H]1[C@H](OC(=O)CCC(=O)O)O[C@@H]2O[C@@]3(C)CC[C@H]4[C@H](C)CC[C@@H]1[C@@]24OO3 [ARTESUNATE]; -0.18
Cc1cc(Cn2cnc3c2C[C@@H](C(=O)O)N(C(=O)C(c2ccccc2)c2ccccc2)C3)ccc1N(C)C; 0.99
Cc1cc(O)c(-c2ccc([C@@H](C)CN(C)C)cc2)c2c1[nH]c(=O)c1sccc12; -0.52

[in] Find the measured Growth Rate of "COc1cc(Nc2nc(C)cc(-c3cnn4nc(OC)ccc34)n2)cc(C(F)(F)F)c1" and report it.
[out] 0.94

[in] Find the measured Growth Rate of "CC(C)(C)c1cc(NC(=O)Nc2ccc(-c3cn4c(n3)sc3cc(OCCN5CCOCC5)ccc34)cc2)no1" and report it.
[out] 0.17

[in] Find the measured Growth Rate of "O=C1NCc2ccc3c(-c4cccc(Cl)c4)c[nH]c3c21" and report it.
[out] -0.1

[in] Find the measured Growth Rate of "CCCCCCCCc1ccc(CCC(N)(CO)CO)cc1" and report it.
[out] -0.5

[in] Find the measured Growth Rate of CCOc1ccc(C[C@H]2NC(=O)CCSSC[C@@H](C(=O)N3CCC[C@H]3C(=O)N[C@@H](CCCN)C(=O)NCC(N)=O)NC(=O)[C@H](CC(N)=O)NC(=O)[C@H]([C@@H](C)O)NC(=O)[C@H]([C@@H](C)CC)NC2=O)cc1 [ATOSIBAN] ([Mpa][dY](Et)ITNCP[Orn]G-NH2; disulfide 1-6) and report it.
[out] 0.78

[in] Find the measured Growth Rate of "N#Cc1c(Oc2cccc(OS(=O)(=O)CCCC(F)(F)F)c2)cccc1C(F)(F)F" and report it.
[out] 0.31

[in] Find the measured Growth Rate of "O=C1[C@H](Cc2ccc(O)cc2)N2C(=O)CCN(C(=O)NCc3ccccc3)[C@H]2CN1Cc1cccc2ccccc12" and report it.
[out] -0.22

[in] Find the measured Growth Rate of "CC(C)n1cc(-c2ccc(N3CCN(C)CC3)c(NC(=O)c3ccc(-c4ccncc4)o3)c2)cn1" and report it.
[out] 0.34

[in] Find the measured Growth Rate of "CCCN[C@H]1CCc2nc(N)sc2C1.Cl.Cl" and report it.
[out] 0.77

[in] Find the measured Growth Rate of "Cc1sc2c(c1C)C(c1ccc(Cl)cc1)=N[C@H](CC(=O)OC(C)(C)C)c1nnc(C)n1-2" and report it.
[out] 0.87

* * *

system: U2OS; assay: Incucyte cell viability with U2OS; format: toxicity, cell-based; conditions: human, 6 h, 10 µM, compound concentration 10 uM, replicate number 2, timepoint 6 hours; note: unitless GR value; below 1 slowed growth and below 0 cell loss
Attribute: Growth Rate
Respond numerically, and do not add a unit to the figure.

[in] Tell me Growth Rate of O=C(O)CCc1ccc(NCc2cccc(Oc3ccccc3)c2)cc1 [GW9508] when tested on U2OS.
[out] 0.91

[in] Tell me Growth Rate of "CO[C@H]1CC[C@@H](C(=O)c2ccc3nc4c(cc3c2)CCCO4)CC1" when tested on U2OS.
[out] 0.55

[in] Tell me Growth Rate of "Cc1ccccc1C#Cc1ccc(CCC(=O)O)cc1" when tested on U2OS.
[out] 0.9

[in] Tell me Growth Rate of "CCOc1c2c(c(OCC)c3ncccc13)CN(c1ccc(CS(=O)(=O)NC(=O)Cc3ccccc3OC)cc1C)C2=O" when tested on U2OS.
[out] 0.75

[in] Tell me Growth Rate of "COc1ccc(C(=O)N2CCN(C(=O)/C=C/c3ccc(Br)cc3)CC2)cc1" when tested on U2OS.
[out] 0.66

[in] Tell me Growth Rate of "O=C1NC(=Nc2c(Cl)cccc2Cl)S/C1=C\c1ccc2nccnc2c1" when tested on U2OS.
[out] 0.81

[in] Tell me Growth Rate of CC(C)c1cc(Oc2c(Cl)cc(-n3nc(C#N)c(=O)[nH]c3=O)cc2Cl)n[nH]c1=O [RESMETIROM] when tested on U2OS.
[out] 0.54

[in] Tell me Growth Rate of CCNC1(C(N)=O)CCN(c2ncnc3c2nc(-c2ccccc2Cl)n3-c2ccc(Cl)cc2)CC1 [OTENABANT] when tested on U2OS.
[out] 0.79

[in] Tell me Growth Rate of C[C@H]1[C@H](OC(=O)CCC(=O)O)O[C@@H]2O[C@@]3(C)CC[C@H]4[C@H](C)CC[C@@H]1[C@@]24OO3 [ARTESUNATE] when tested on U2OS.
[out] 0.72

Data provenance is ChEMBL document CHEMBL5058564.
